# folding stability dG per entry
B1: EEHEE_rd4_0647 (parent)
chain: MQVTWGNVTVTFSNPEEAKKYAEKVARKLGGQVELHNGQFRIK

- Variants of: B1
- method_summary: folding stability dG (cDNA display proteolysis); higher = more stable
- condition_parameters: PBS, room temperature
Numbers only; they are read as kcal/mol.

A selection of reference data follows.
>  <variant_spec>
T11R

>  <unit_text>
kcal/mol

>  <folding stability dG>
2.62

$$$$
>  <variant_spec>
Q32M

>  <unit_text>
kcal/mol

>  <folding stability dG>
2.78

$$$$
>  <variant_spec>
A18S

>  <unit_text>
kcal/mol

>  <folding stability dG>
0.985

$$$$
>  <variant_spec>
P15F

>  <unit_text>
kcal/mol

>  <folding stability dG>
3.41

$$$$
>  <variant_spec>
G30I

>  <unit_text>
kcal/mol

>  <folding stability dG>
1.34

$$$$
>  <variant_spec>
G6R

>  <unit_text>
kcal/mol

>  <folding stability dG>
2.21

$$$$
>  <variant_spec>
R27I

>  <unit_text>
kcal/mol

>  <folding stability dG>
2.52

$$$$
>  <variant_spec>
K19I

>  <unit_text>
kcal/mol

>  <folding stability dG>
2.42

$$$$

Input: Fill in reported folding stability dG for this entry: `T9R`
Output: 2.06

Input: Please supply the value of reported folding stability dG for the item `G6P`
Output: 0.79

Input: Return the recorded folding stability dG value; entry: `A22G`
Output: 0.944

Input: Let me know recorded folding stability dG for `A26K` , thanks.
Output: 0.937
